Entry source: patent US20050176069A1

The entries below are paired with their reported pIC50.
# TESTED SYSTEM: T1, CEGPCR4 (C. elegans)
# T1 construct: Expressed in CHO cells
# T1 chain: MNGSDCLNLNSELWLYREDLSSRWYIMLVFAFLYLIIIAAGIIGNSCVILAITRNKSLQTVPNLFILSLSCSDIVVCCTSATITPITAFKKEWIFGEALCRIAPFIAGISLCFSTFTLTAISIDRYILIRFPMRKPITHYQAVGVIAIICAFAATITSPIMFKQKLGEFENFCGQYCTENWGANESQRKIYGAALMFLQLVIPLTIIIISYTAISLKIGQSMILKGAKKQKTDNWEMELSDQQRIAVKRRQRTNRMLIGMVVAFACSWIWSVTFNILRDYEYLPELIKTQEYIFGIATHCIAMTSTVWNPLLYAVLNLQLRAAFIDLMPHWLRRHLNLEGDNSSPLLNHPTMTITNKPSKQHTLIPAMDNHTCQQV
# PROTOCOL DESCRIPTION: competition binding assay, CEGPCR4/CHO membranes, vs [125I-Y]DVPGVLRF-NH2
pIC50: −log10 of the molar value. Where no end group is shown, it is not given here. [ ]: non-standard residue; d: D form. Tyr(3-I) = N[C@@H](Cc1ccc(O)c(I)c1)C(=O)O

BINDER	pIC50
YDVPGVLRF-NH2 [Y-DVPGVLRF-NH2]	7.22 to 9.00
NGAPQPFVRF-NH2 [NGAPQPFVRF-NH2]	3.30 to 4.30
ASPSFIRF-NH2 [ASPSFIRF-NH2]	8.00 to 9.30
[Tyr(3-I)]DVPGVLRF-NH2 (also: 125I in the radiolabelled probe, N-terminally iodo-Tyr-extended flp18 analog) [3-Iodo-Y-DVPGVLRF-NH2]	7.22 to 9.00
DFDGAMPGVLRF-NH2 [DFDGAMPGVLRF-NH2]	8.00 to 9.30
SPLGTMRF-NH2 [SPLGTMRF-NH2]	3.30 to 4.30
PGVLRF-NH2 [PGVLRF-NH2]	7.22 to 9.00
